Target: FPR2 (Homo sapiens, UniProt P25090)
Sequence (P25090 whole entry, species assumed): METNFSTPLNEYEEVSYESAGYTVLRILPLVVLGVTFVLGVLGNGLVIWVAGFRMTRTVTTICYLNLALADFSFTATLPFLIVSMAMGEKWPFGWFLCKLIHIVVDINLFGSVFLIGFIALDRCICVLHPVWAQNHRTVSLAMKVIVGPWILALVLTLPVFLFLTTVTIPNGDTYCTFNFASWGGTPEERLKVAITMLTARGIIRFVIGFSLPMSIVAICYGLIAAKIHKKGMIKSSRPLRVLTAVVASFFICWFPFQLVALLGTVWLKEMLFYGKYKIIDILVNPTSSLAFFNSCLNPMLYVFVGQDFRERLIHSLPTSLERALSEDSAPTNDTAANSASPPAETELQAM
Experiment: Change in calcium activity by peptide (Fura-2) in RBL cells overexpressing FPR2
Settings: calcium activity (Fura-2), graded per Table 3, read-out: EC50 for [Ca^2+] FPR2
Peptide text beside a SMILES is read from it.
experimental.endpoint: EC50

Examples with answers:
CSCC[C@H](NC(=O)[C@H](Cc1c[nH]cn1)NC(C)=O)C(=O)N[C@@H](CCCNC(=N)N)C(=O)N[C@@H](Cc1ccc(O)cc1)C(=O)N[C@@H](CCCCN)C(=O)N1CCC[C@H]1C(=O)N[C@H](CCSC)C(N)=O [Peptide 59] (HELM PEPTIDE1{[ac].H.M.R.Y.K.P.[dM].[am]}$$$$V2.0) :: < 10 nM
CCCC(=O)N1CCC[C@H]1C(=O)N[C@@H](CCSC)C(=O)N[C@@H](CCCNC(=N)N)C(=O)N[C@@H](Cc1ccc(O)cc1)C(=O)N[C@@H](CCCCN)C(=O)N1CCC[C@H]1C(=O)N[C@H](CCSC)C(N)=O [Peptide 64] (HELM PEPTIDE1{[CCCC(=O)[*:2]].P.M.R.Y.K.P.[dM].[am]}$$$$V2.0) :: < 10 nM

Query molecule follows.
q: Looking for the measured EC50 of CSCC[C@@H](NC(=O)[C@H](Cc1ccc(O)cc1)NC(=O)[C@@H](NC(=O)[C@H](Cc1ccc(O)cc1)NC(=O)[C@H](CCCNC(=N)N)NC(=O)[C@H](Cc1c[nH]c2ccccc12)NC(=O)[C@@H](N)CCCNC(=N)N)[C@@H](C)O)C(N)=O [Peptide 157] (HELM PEPTIDE1{R.W.R.Y.T.Y.[dM].[am]}$$$$V2.0) , can you help?
a: < 10 nM
